Species on record: Oryctolagus cuniculus
Test: Inhibition of chymotrypsin-like activity of rabbit erythrocyte 20S proteasome beta5 subunit at 100 uM using Suc-LLVY-AMC as substrate preincubated for 15 mins followed by substrate addition measured after 45 mins by fluorescence assay
Active and inactive are the calls of the source. The rule behind the calls is not given here.
Reported endpoint: inhibition

Check out these entries, answers already filled in.
>>> print(df.to_string())
                                   molecule  reported_endpoint       val
0                        NCC1(c2cccs2)CCCC1         inhibition       26%
1                       NCC1(c2cccs2)CCOCC1         inhibition  inactive
2  OC(CNCC1(c2cccs2)CCOCC1)COc1ccccc1 (stereo not given)         inhibition       31%
3                       NCC1(c2cccs2)CCCCC1         inhibition  inactive

The record that follows has no inhibition shown yet.
Given COc1ccccc1OCC(O)CNCC1(c2cccs2)CCOCC1 (stereo not given) , state its recorded inhibition.
inactive
